Measured values drawn from patent US9670227B2 for this set.

Each record here notes measured IC50.
# target_under_test: Mcl-1 protein (UniProtKB primary accession number: Q07820) (Homo sapiens, UniProt Q07820)
# Sequence (Q07820 whole entry): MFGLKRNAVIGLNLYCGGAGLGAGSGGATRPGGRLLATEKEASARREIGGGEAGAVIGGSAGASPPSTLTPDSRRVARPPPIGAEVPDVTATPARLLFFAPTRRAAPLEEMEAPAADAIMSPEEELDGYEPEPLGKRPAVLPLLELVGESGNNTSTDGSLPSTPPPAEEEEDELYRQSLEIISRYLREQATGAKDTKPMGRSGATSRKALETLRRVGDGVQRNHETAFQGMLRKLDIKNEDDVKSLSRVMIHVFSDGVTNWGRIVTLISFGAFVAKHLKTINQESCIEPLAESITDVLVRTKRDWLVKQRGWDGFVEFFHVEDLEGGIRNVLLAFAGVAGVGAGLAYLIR
# measurement_notes: Inhibition of Mcl-1 by fluorescence polarisation, Method 1
# Assay type: binding
# condition_summary: fluorescence polarisation; Method 1, or Method 2; read-out: IC50 (M) Mcl-1 FP
measurement_kind: IC50 (M)

[
  {
    "compound": "CC#Cc1sc2ncnc(OC(Cc3ccccc3)C(=O)O)c2c1-c1ccc(OCCN2CCN(C)CC2)c(Cl)c1C (stereo not shown) [Example 519]",
    "target_under_test": "Mcl-1 protein (UniProtKB primary accession number: Q07820) (Homo sapiens, UniProt Q07820)",
    "measured": "2.3e-08"
  },
  {
    "compound": "COc1ccccc1CC(Oc1ncnc2sc(-c3ccsc3)c(-c3ccc(OCCN4CCN(C)CC4)c(Cl)c3C)c12)C(=O)O (stereo not shown) [Example 568]",
    "target_under_test": "Mcl-1 protein (UniProtKB primary accession number: Q07820) (Homo sapiens, UniProt Q07820)",
    "measured": "2.5e-08"
  },
  {
    "compound": "CCOCCn1nccc1COc1ccccc1CC(Oc1ncnc2sc(-c3ccc(F)cc3)c(-c3ccc(OCCN(C)C)c(Cl)c3C)c12)C(=O)O (stereo not shown) [Example 754]",
    "target_under_test": "Mcl-1 protein (UniProtKB primary accession number: Q07820) (Homo sapiens, UniProt Q07820)",
    "measured": "4.7e-09"
  },
  {
    "compound": "Cc1c(Cl)cccc1-c1c(-c2ccco2)sc2ncnc(OC(Cc3ccccc3OCCN3CCN(C)CC3)C(=O)O)c12 (stereo not shown) [Example 666]",
    "target_under_test": "Mcl-1 protein (UniProtKB primary accession number: Q07820) (Homo sapiens, UniProt Q07820)",
    "measured": "7.7e-08"
  },
  {
    "compound": "COc1ccccc1-c1nccc(COc2ccccc2CC(Oc2ncnc3sc(C#CCCN4CCOCC4)c(-c4ccc(OCCN5CCN(C)CC5)c(Cl)c4C)c23)C(=O)O)n1 (stereo not shown) [Example 785]",
    "target_under_test": "Mcl-1 protein (UniProtKB primary accession number: Q07820) (Homo sapiens, UniProt Q07820)",
    "measured": "3.85e-09"
  },
  {
    "compound": "CCc1sc2ncnc(OC(Cc3ccccc3)C(=O)O)c2c1-c1cccc(O)c1C (stereo not shown) [Example 452]",
    "target_under_test": "Mcl-1 protein (UniProtKB primary accession number: Q07820) (Homo sapiens, UniProt Q07820)",
    "measured": "3e-07"
  },
  {
    "compound": "COc1ccccc1CC(Oc1ncnc2sc(-c3ccc(F)cc3F)c(-c3ccc(OCCN4CCN(C)CC4)c(Cl)c3C)c12)C(=O)O (stereo not shown) [Example 540]",
    "target_under_test": "Mcl-1 protein (UniProtKB primary accession number: Q07820) (Homo sapiens, UniProt Q07820)",
    "measured": "3.2e-09"
  },
  {
    "compound": "CCc1sc2ncnc(OC(Cc3ccccc3)C(=O)O)c2c1-c1ccc(OCCN(C)C)cc1C (stereo not shown) [Example 410]",
    "target_under_test": "Mcl-1 protein (UniProtKB primary accession number: Q07820) (Homo sapiens, UniProt Q07820)",
    "measured": "2.2e-06"
  },
  {
    "compound": "CCc1sc2ncnc(OC(Cc3ccccc3)C(=O)O)c2c1-c1ccc(OCCN2CCOCC2)c(Cl)c1C (stereo not shown) [Example 420]",
    "target_under_test": "Mcl-1 protein (UniProtKB primary accession number: Q07820) (Homo sapiens, UniProt Q07820)",
    "measured": "4e-08"
  },
  {
    "compound": "Cc1ccc(-c2sc3ncnc(OC(Cc4ccccc4)C(=O)O)c3c2-c2ccc(OCCN3CCN(C)CC3)c(Cl)c2C)o1 (stereo not shown) [Example 499]",
    "target_under_test": "Mcl-1 protein (UniProtKB primary accession number: Q07820) (Homo sapiens, UniProt Q07820)",
    "measured": "1e-07"
  },
  {
    "compound": "COc1cnccc1-c1nccc(COc2ccccc2CC(Oc2ncnc3sc(-c4ccc(F)cc4)c(-c4ccc(OCCN5CCN(C)CC5)c(Cl)c4C)c23)C(=O)O)n1 (stereo not shown) [Example 730]",
    "target_under_test": "Mcl-1 protein (UniProtKB primary accession number: Q07820) (Homo sapiens, UniProt Q07820)",
    "measured": "9.48e-10"
  },
  {
    "compound": "CCCCn1nccc1COc1ccccc1CC(Oc1ncnc2sc(-c3ccc(N)nc3)c(-c3ccc(OCCN4CCN(C)CC4)c(Cl)c3C)c12)C(=O)O (stereo not shown) [Example 618]",
    "target_under_test": "Mcl-1 protein (UniProtKB primary accession number: Q07820) (Homo sapiens, UniProt Q07820)",
    "measured": "5.6e-09"
  },
  {
    "compound": "Cc1c(-c2c(-c3ccc(F)cc3)sc3ncnc(OC(Cc4ccccc4OCc4ccnc(-c5ccccc5C(F)(F)F)n4)C(=O)O)c23)ccc(OCCN2CCN(C)CC2)c1Cl (stereo not shown) [Example 727]",
    "target_under_test": "Mcl-1 protein (UniProtKB primary accession number: Q07820) (Homo sapiens, UniProt Q07820)",
    "measured": "1.32e-09"
  }
]

====

# target_under_test: Mcl-1 protein (UniProtKB primary accession number: Q07820) (Homo sapiens, UniProt Q07820)
# measurement_notes: Inhibition of Mcl-1 by fluorescence polarisation, Method 1
# Format: binding
# condition_summary: fluorescence polarisation test; Method 2 values are underlined in the patent (underlining not visible here); read-out: IC50 (M) Mcl-1 FP
measurement_kind: IC50 (M)

[
  {
    "compound": "Cc1c(-c2c(-c3ccco3)sc3ncnc(OC(Cc4ccccc4OCC4CC4)C(=O)O)c23)ccc(OCCN2CCN(C)CC2)c1Cl (stereo not drawn) [Example 229]",
    "measurement_kind": "IC50",
    "reading_unit": "M",
    "measured": "4.5e-09"
  },
  {
    "compound": "Cc1c(-c2c(-c3ccc(F)cc3)sc3ncnc(OC(Cc4ccccc4OCc4ccnc(C5CC5)n4)C(=O)O)c23)ccc(OCCN2CCN(C)CC2)c1Cl (stereo not drawn) [Example 26]",
    "measurement_kind": "IC50",
    "reading_unit": "M",
    "measured": "1.1e-08"
  },
  {
    "compound": "Cc1c(-c2c(-c3ccco3)sc3ncnc(OC(Cc4ccccc4SCC(F)(F)F)C(=O)O)c23)ccc(OCCN2CCN(C)CC2)c1Cl (stereo not drawn) [Example 362]",
    "measurement_kind": "IC50",
    "reading_unit": "M",
    "measured": "2.6e-08"
  },
  {
    "compound": "COCCN(C)c1nccc(COc2ccccc2CC(Oc2ncnc3sc(-c4ccc(F)cc4)c(-c4ccc(OCCN5CCN(C)CC5)c(Cl)c4C)c23)C(=O)O)n1 (stereo not drawn) [Example 48]",
    "measurement_kind": "IC50",
    "reading_unit": "M",
    "measured": "1.1e-08"
  },
  {
    "compound": "COc1ccc(-c2nccc(COc3ccccc3CC(Oc3ncnc4sc(-c5ccc(F)cc5)c(-c5ccc(OCCN6CCN(C)CC6)c(Cl)c5C)c34)C(=O)O)n2)cc1 (stereo not drawn) [Example 107]",
    "measurement_kind": "IC50",
    "reading_unit": "M",
    "measured": "5.3e-09"
  },
  {
    "compound": "Cc1c(-c2c(-c3ccco3)sc3ncnc(OC(Cc4ccccc4OCc4ccnn4C)C(=O)O)c23)ccc(OCCN2CCN(C)CC2)c1Cl (stereo not drawn) [Example 260]",
    "measurement_kind": "IC50",
    "reading_unit": "M",
    "measured": "6.7e-09"
  }
]

====

Each record here notes measured IC50.
# Tested on: H929 multiple myeloma tumour line
# measurement_notes: In vitro cytotoxicity, Microculture Tetrazolium Assay
# Format: cell-based
# condition_summary: Homo sapiens, NCI-H929, 48 h, H929 cells, 48 hours exposure, MTT; read-out: IC50 (μM) MTT H929
measurement_kind: IC50 (µM)

[
  {
    "compound": "Cc1c(-c2c(-c3ccc(Cl)s3)sc3ncnc(OC(Cc4ccccc4)C(=O)O)c23)ccc(OCCN2CCN(C)CC2)c1Cl (stereo not drawn)",
    "measurement_kind": "IC50",
    "measured": 2.84
  },
  {
    "compound": "CCc1sc2ncnc(OC(Cc3cccc4c3OCO4)C(=O)O)c2c1-c1ccc(OCCN2CCN(C)CC2)c(Cl)c1C (stereo not drawn)",
    "measurement_kind": "IC50",
    "measured": 6.82
  },
  {
    "compound": "COc1nccc(COc2ccccc2CC(Oc2ncnc3sc(-c4ccc(F)c(OC)c4)c(-c4ccc(OCCN5CCN(C)CC5)c(Cl)c4C)c23)C(=O)O)n1 (stereo not drawn)",
    "measurement_kind": "IC50",
    "measured": 0.03
  },
  {
    "compound": "COc1nccc(COc2ccccc2CC(Oc2ncnc3sc(-c4ccc(F)c(OCCO)c4)c(-c4ccc(OCCN5CCN(C)CC5)c(Cl)c4C)c23)C(=O)O)n1 (stereo not drawn)",
    "measurement_kind": "IC50",
    "measured": 0.449
  },
  {
    "compound": "COCCOc1nccc(COc2ccccc2CC(Oc2ncnc3sc(-c4ccc(F)cc4)c(-c4ccc(OCCN5CCN(C)CC5)c(Cl)c4C)c23)C(=O)O)n1 (stereo not drawn)",
    "measurement_kind": "IC50",
    "measured": 0.009
  },
  {
    "compound": "Cc1c(-c2c(-c3ccco3)sc3ncnc(OC(Cc4ccccc4OCc4cnn(C)c4)C(=O)O)c23)ccc(OCCN2CCN(C)CC2)c1Cl (stereo not drawn)",
    "measurement_kind": "IC50",
    "measured": 0.406
  },
  {
    "compound": "Cc1c(-c2c(-c3ccc(F)cc3)sc3ncnc(OC(Cc4ccccc4OCc4ccnc(N5CCN(C)CC5)n4)C(=O)O)c23)ccc(OCCN2CCN(C)CC2)c1Cl (stereo not drawn)",
    "measurement_kind": "IC50",
    "measured": 0.076
  },
  {
    "compound": "CC#Cc1sc2ncnc(OC(Cc3ccccc3OC)C(=O)O)c2c1-c1ccc(OCCN(C(C)C)C(C)C)c(Cl)c1C (stereo not drawn)",
    "measurement_kind": "IC50",
    "measured": 3.35
  },
  {
    "compound": "CCc1sc2ncnc(OC(Cc3ccccc3)C(=O)O)c2c1-c1ccc(OCCN(CCO)CCO)c(Cl)c1C (stereo not drawn)",
    "measurement_kind": "IC50",
    "measured": 28.7
  },
  {
    "compound": "COc1ccccc1CC(Oc1ncnc2sc(-c3ccc(F)o3)c(-c3ccc(OCCN(C)C)c(Cl)c3C)c12)C(=O)O (stereo not drawn)",
    "measurement_kind": "IC50",
    "measured": 0.28
  },
  {
    "compound": "COc1nccc(COc2ccccc2CC(Oc2ncnc3sc(-c4ccc(F)cc4)c(-c4cnc(OCCN5CCN(C)CC5)c(Cl)c4C)c23)C(=O)O)n1 (stereo not drawn)",
    "measurement_kind": "IC50",
    "measured": 0.282
  },
  {
    "compound": "Cc1c(-c2c(-c3ccc(F)cc3)sc3ncnc(OC(Cc4ccccc4OCc4ccnc(CCN(C)C)n4)C(=O)O)c23)ccc(OCCN2CCN(C)CC2)c1Cl (stereo not drawn)",
    "measurement_kind": "IC50",
    "measured": 0.465
  },
  {
    "compound": "Cc1ccncc1-c1nccc(COc2ccccc2CC(Oc2ncnc3sc(-c4ccc(F)cc4)c(-c4ccc(OCCN(C)C)c(Cl)c4C)c23)C(=O)O)n1 (stereo not drawn)",
    "measurement_kind": "IC50",
    "measured": 0.013
  },
  {
    "compound": "COc1nccc(COc2ccccc2CC(Oc2ncnc3sc(-c4ccc(F)c(O)c4)c(-c4ccc(OCCN5CCN(C)CC5)c(Cl)c4C)c23)C(=O)O)n1 (stereo not drawn)",
    "measurement_kind": "IC50",
    "measured": 0.114
  },
  {
    "compound": "Cc1c(-c2c(-c3ccc(F)cc3)sc3ncnc(OC(Cc4ccccc4OCc4ccnc(Cc5ccccc5)n4)C(=O)O)c23)ccc(OCCN2CCN(C)CC2)c1Cl (stereo not drawn)",
    "measurement_kind": "IC50",
    "measured": 0.008
  },
  {
    "compound": "COc1ccccc1CC(Oc1ncnc2sc(-c3cc4sccc4s3)c(-c3ccc(OCCN4CCN(C)CC4)c(Cl)c3C)c12)C(=O)O (stereo not drawn)",
    "measurement_kind": "IC50",
    "measured": 1.59
  },
  {
    "compound": "Cc1c(-c2c(-c3ccc(F)cc3)sc3ncnc(OC(Cc4ccccc4OCc4ccnc(C(C)(C)C)n4)C(=O)O)c23)ccc(OCCN2CCN(C)CC2)c1Cl (stereo not drawn)",
    "measurement_kind": "IC50",
    "measured": 0.054
  },
  {
    "compound": "COc1ccccc1CC(Oc1ncnc2sc(-c3cccc(SC)c3)c(-c3ccc(OCCN4CCN(C)CC4)c(Cl)c3C)c12)C(=O)O (stereo not drawn)",
    "measurement_kind": "IC50",
    "measured": 0.742
  },
  {
    "compound": "COc1ccccc1CC(Oc1ncnc2sc(-c3ccco3)c(-c3ccc(OC4CCN(C)C4)c(Cl)c3C)c12)C(=O)O (stereo not drawn)",
    "measurement_kind": "IC50",
    "measured": 0.998
  },
  {
    "compound": "Cc1c(-c2c(-c3ccc(F)cc3)sc3ncnc(OC(Cc4ccccc4OCc4ccnc(N5CCOCC5)c4)C(=O)O)c23)ccc(OCCN2CCN(C)CC2)c1Cl (stereo not drawn)",
    "measurement_kind": "IC50",
    "measured": 0.08
  },
  {
    "compound": "Cc1c(-c2c(-c3ccc(F)cc3)sc3ncnc(OC(Cc4ccccc4OCc4cnnn4-c4ccccc4)C(=O)O)c23)ccc(OCCN2CCN(C)CC2)c1Cl (stereo not drawn)",
    "measurement_kind": "IC50",
    "measured": 0.085
  },
  {
    "compound": "COC(=O)C(Cc1ccccc1OCc1ccnc(-c2ccccc2OC)n1)Oc1ncnc2sc(-c3ccc(F)cc3)c(-c3ccc(OCCN4CCN(C)CC4)c(Cl)c3C)c12 (stereo not drawn)",
    "measurement_kind": "IC50",
    "measured": 0.245
  },
  {
    "compound": "Cc1cc(COc2ccccc2CC(Oc2ncnc3sc(-c4ccco4)c(-c4ccc(OCCN5CCN(C)CC5)c(Cl)c4C)c23)C(=O)O)n(C)n1 (stereo not drawn)",
    "measurement_kind": "IC50",
    "measured": 0.105
  },
  {
    "compound": "CCc1sc2ncnc(OC(Cc3ccccc3OCc3ccnc(OC)n3)C(=O)O)c2c1-c1ccc(OCCN2CCN(C)CC2)c(Cl)c1C (stereo not drawn)",
    "measurement_kind": "IC50",
    "measured": 0.339
  }
]
